tested on: Nakaseomyces glabratus; assay: Induction of apoptosis in Candida glabrata ATCC 90030 assessed as live cells at antifungal MIC90 after 24 hrs by Annexin V/propidium iodide staining based flow cytometry (reference value: 99.5%); assay type: functional
outcome_measure: Activity (%)

> print(dat)
                                   compound           tested.system  outcome.measure  number
1    Clc1ccccc1C(c1ccccc1)(c1ccccc1)n1ccnc1  Nakaseomyces glabratus         Activity    46.3
2  Cn1cnnc1SCCc1nnc(SCC(=O)Nc2ccc([N+](=O)[O-])cc2)o1  Nakaseomyces glabratus         Activity    78.7
3  CC(=O)N1CCN(c2ccc(OCC3COC(Cn4ccnc4)(c4ccc(Cl)cc4Cl)O3)cc2)CC1 (centres undefined)  Nakaseomyces glabratus         Activity    23.7
4  Cn1cnnc1SCCc1nnc(SCC(=O)Nc2nc3ccc(F)cc3s2)o1  Nakaseomyces glabratus         Activity    46.4

Each recorded value in this set is attributed to ChEMBL document CHEMBL4251611.
